Recorded MTD for the following compounds
- protocol-description: Maximum single tolerable intravenous dose in mice
- run-parameters: both sexes, mouse, in vivo, highest dose without clinical signs in 4 animals, read-out: Mouse MTD (i.v.)

Previously resolved entries follow.
>  <sample-smiles>
CN1CCN(CCC(=O)Nc2ccc3c(c2)Sc2cccc(-c4cc(=O)cc(N5CCOCC5)o4)c2S3)CC1

>  <MTD>
< 40 mg/kg

$$$$
>  <sample-smiles>
CN1CCN(CCC(=O)Nc2ccc3c(c2)Cc2cccc(-c4cc(=O)cc(N5CCOCC5)o4)c2S3)CC1

>  <MTD>
< 40 mg/kg

$$$$
>  <sample-smiles>
CC(C)N1CCN(CCC(=O)Nc2ccc3c(c2)Sc2cccc(-c4cc(=O)cc(N5CCOCC5)o4)c2S3)CC1

>  <MTD>
< 40 mg/kg

$$$$

Bench note: what MTD did C[C@@H]1CN(CC(=O)Nc2ccc3c(c2)Cc2cccc(-c4cc(=O)cc(N5CCOCC5)o4)c2S3)C[C@H](C)O1 show?
75 mg/kg
